meta.source: paper PMC10786891

Biological target: T1, EsCas13d, nuclease-dead (Eubacterium siraeum, UniProt B0MS50, R295A;H300A;R849A;H854A)
T1 sequence: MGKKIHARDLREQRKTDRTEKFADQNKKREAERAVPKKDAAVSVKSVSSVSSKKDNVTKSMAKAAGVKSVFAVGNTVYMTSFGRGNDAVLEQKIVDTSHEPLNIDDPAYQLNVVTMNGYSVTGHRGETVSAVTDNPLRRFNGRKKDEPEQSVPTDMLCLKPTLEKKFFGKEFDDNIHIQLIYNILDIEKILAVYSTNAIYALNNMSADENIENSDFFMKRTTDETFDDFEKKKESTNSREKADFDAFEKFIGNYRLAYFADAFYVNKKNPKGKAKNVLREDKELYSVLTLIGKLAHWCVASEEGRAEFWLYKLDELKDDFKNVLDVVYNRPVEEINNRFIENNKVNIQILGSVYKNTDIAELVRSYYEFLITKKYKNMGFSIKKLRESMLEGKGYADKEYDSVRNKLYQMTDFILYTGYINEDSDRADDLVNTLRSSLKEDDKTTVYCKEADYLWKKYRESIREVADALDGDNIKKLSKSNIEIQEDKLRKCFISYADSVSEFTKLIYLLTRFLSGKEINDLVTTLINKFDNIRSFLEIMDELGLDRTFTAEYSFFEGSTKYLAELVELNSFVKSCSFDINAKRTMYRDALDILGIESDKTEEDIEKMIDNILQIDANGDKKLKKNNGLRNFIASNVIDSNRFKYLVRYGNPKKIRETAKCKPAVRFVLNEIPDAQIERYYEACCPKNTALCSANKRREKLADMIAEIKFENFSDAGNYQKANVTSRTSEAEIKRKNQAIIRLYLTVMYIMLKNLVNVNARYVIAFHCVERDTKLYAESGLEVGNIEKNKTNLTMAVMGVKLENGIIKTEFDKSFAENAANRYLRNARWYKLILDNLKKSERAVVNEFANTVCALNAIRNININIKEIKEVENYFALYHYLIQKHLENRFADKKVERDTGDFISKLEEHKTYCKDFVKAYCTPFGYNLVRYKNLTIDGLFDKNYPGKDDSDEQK
Experiment: crRNA (strand 1, pre-loaded); Mg2+; 40 mM Tris-HCl pH 7.5, 150 mM NaCl, 6 mM MgCl2, 1 mM DTT, 0.1% Tween-20, 0.2 mg/ml BSA; 25 C; 10 min per concentration, then washed
Conditions: tags: His6-TwinStrep-SUMO cleaved; N-terminal SNAP kept (SNAP-Surface 488); label: 3' end held by stalled T7 RNA polymerase

{"BINDER": "target 1 insA 3' of 17,insG 3' of 3 (mixed) RNA 1: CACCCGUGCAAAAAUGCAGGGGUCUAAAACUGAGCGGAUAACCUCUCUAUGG RNA 2: GGGAAUGGAUCCACAUCUACGAAUUCGUACCAUAGAAGAGGUUAUCCGCUGCACCGAGAUCGGAAGAGCACACGU", "Kd": "10.9 nM"}
{"BINDER": "target 1 insA 3' of 10,insA 3' of 6 (mixed) RNA 1: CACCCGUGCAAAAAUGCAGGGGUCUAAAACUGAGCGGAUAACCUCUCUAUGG RNA 2: GGGAAUGGAUCCACAUCUACGAAUUCGUACCAUAGAGAGGUUAAUCCAGCUCACCGAGAUCGGAAGAGCACACGU", "Kd": "11.1 nM"}
